Where these numbers come from: ChEMBL document CHEMBL4033653

System: Leishmania amazonensis
Test: Antileishmanial activity against Leishmania amazonensis IFLA/BR/1967/PH8 amastigotes infected in murine macrophages after 72 hrs by fluorometric analysis
Assay type: functional
Details: IFLA/BR/1967/PH8, 72 h
pIC50: −log10 of the molar value.
assay endpoint: pIC50

molecule="CCCCCCCCCCCCCCCCOP(=O)([O-])OCC[N+](C)(C)C [MILTEFOSINE]" quantitative_readout=5.38
molecule=CC(=O)[O-].CCCCCCCCCCn1cc(CO)[n+](C)n1 quantitative_readout=6.05

====

Assay: Hemolytic activity in human erythrocytes at 9.4 to 150 uM relative to control
Type: ADME, cell-based, Erythrocyte
Settings: read-out: Activity
assay endpoint: hemolysis at up to 150 µM

structure_as_smiles=CC(=O)[O-].CCCCCCCCCCn1cc(CO)[n+](C)n1 assay_endpoint="hemolysis at up to 150 µM" result="< 5%"
